# credit: the Human Domainome abundance scans (Beltran et al. 2025)

B1: WW domain-containing transcription regulator protein 1, residues 116 to 162; numbered along this chain, Q9GZV5 (parent)
chain: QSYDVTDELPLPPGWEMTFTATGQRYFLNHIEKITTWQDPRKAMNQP

# Variants of: B1
# experiment_description: abundance fitness (aPCA) (normalised: wild type 0, dead -1); higher = more abundant; growth selection in yeast, the domain comes from the species named
# protocol_conditions: Homo sapiens
Rule: abundance fitness under -0.1 gives Condition not met, otherwise Condition met.

Consider the following illustrative entries.
{"columns": ["variant_description", "class_name"],
 "data": [
  ["Q38L", "Condition met"],
  ["D4H", "Condition not met"],
  ["Q1I", "Condition met"],
  ["R25S", "Condition not met"]
]}

hey, is abundance fitness for this one >= -0.1? F27T
Condition not met

Answer whether abundance fitness of T36S is greater than or equal to -0.1.
Condition not met

Is the recorded value of abundance fitness equal to or greater than -0.1 for this variant? K42F
Condition not met

Could you tell me if the measured abundance fitness of L9A reaches -0.1 or more?
Condition met
